# Test Description: In vitro digestion with brush border membranes supplemented with PEP
# Type: in vitro ADME
# Assay Conditions: rat, kidney or brush border membranes; BBM plus 100 μU/μL PEP, 37° C., 1 hr; read-out: percentage of parent material digested, BBM + PEP 1 hr
Ends that are not written are not given here.

# Residues, metabolised at 1 h, 75 µM
data = [
    ("FLQPQQPFPQQPQQPYPQQPQQPFPQ [Peptide P8]", "> 99%"),
]

====

Listed here: items and their measured metabolised at 1 h, 75 µM.
# Test Description: In vitro digestion of gliadin peptides with brush border membranes
# Assay type: in vitro ADME, rat
Ends that are not written are not given here.

# Residues, metabolised at 1 h, 75 µM (%)
measured = [
    ("LGQQQPFPPQQPYPQPQPF [Peptide P4, LGQQQPFPPQQPYPQPQPF]", 77),
    ("LQLQPFPQPQLPYPQPQLPYPQPQLPYPQPQPF [Peptide P5]", 20),
    ("QLQPFPQPQLPY [Peptide P2, QLQPFPQPQLPY]", 71),
    ("VSFQQPQQQYPSSQ [Peptide P6, VSFQQPQQQYPSSQ]", 97),
]

====

# Test Description: In vitro digestion of gliadin peptides with gastric and pancreatic enzymes (PTCtCE)
# Format: in vitro ADME
# Assay Conditions: pH 7.04
Ends that are not written are not given here.
Parameter: metabolised at 4 h, 75 µM

# Residues, Value Measured
measured = [
    ("VSFQQPQQQYPSSQ [Peptide P6, VSFQQPQQQYPSSQ]", "48%"),
    ("QLQPFPQPQLPY [Peptide P2, QLQPFPQPQLPY]", "1%"),
    ("LQLQPFPQPQLPYPQPQLPYPQPQLPYPQPQPF [Peptide P5]", "10%"),
]

====

# Test Description: In vitro digestion of gliadin peptides with gastric and pancreatic enzymes (PTCtCE)
# Type: in vitro ADME
# Assay Conditions: pH 7.04; 75 μM peptide, 37° C., 4 hr; NR = no reaction; read-out: percentage of parent material digested, PTCtCE 4 hr
Ends that are not written are not given here.

# Residues, Unit Of Measurement, metabolised at 4 h, 75 µM
rows = [
    ("FLQPQQPFPQQPQQPYPQQPQQPFPQ [Peptide P8]", "%", 13),
]

====

# Test Description: In vitro digestion of gliadin peptides with brush border membranes
# Format: in vitro ADME, rat
# Assay Conditions: rat, kidney or brush border membranes; 4 hours; read-out: starting material remaining after BBM exposure
Ends that are not written are not given here.

# Residues, remaining at 4 h, 75 µM
records = [
    ("FLQPQQPFPQQPQQPYPQQPQQPFPQ [Peptide P8]", "~70%"),
]

====

# Test Description: In vitro digestion with brush border membranes supplemented with PEP
# Type: in vitro ADME
# Assay Conditions: rat, kidney or brush border membranes; BBM plus 100 μU/μL PEP, 37° C., 4 hr; read-out: percentage of parent material digested, BBM + PEP 4 hr
Ends that are not written are not given here.

# Residues, metabolised at 4 h, 75 µM
records = [
    ("FLQPQQPFPQQPQQPYPQQPQQPFPQ [Peptide P8]", "> 99%"),
]

====

# Test Description: In vitro digestion of gliadin peptides with brush border membranes
# Assay type: in vitro ADME, rat
# Assay Conditions: rat, kidney or brush border membranes
Ends that are not written are not given here.

# Residues, remaining at 4 h, 75 µM
data = [
    ("LQLQPFPQPQLPYPQPQLPYPQPQLPYPQPQPF [Peptide P5]", "~70%"),
]
